Target: T1, human CD3 on CD3+ Jurkat cells (human, UniProt P07766 23-207)
T1 construct: whole, on cells; Native CD3 complex on cells; the other CD3 chains are not specified for this assay; also called Human CD3+ Jurkat
T1 sequence (P07766 23-207): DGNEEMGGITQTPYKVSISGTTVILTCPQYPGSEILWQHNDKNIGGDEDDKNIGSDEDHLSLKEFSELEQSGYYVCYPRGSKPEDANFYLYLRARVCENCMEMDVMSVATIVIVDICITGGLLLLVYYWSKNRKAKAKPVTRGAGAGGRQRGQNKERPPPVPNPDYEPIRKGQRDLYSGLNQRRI
Experiment: flow cytometry, 100 nM IgG on CD3+ Jurkat cells, pH 7.4
ATTRIBUTE MEASURED: MFI pH 7.4 (MFI)
I only need the number, in MFI, no unit after it.

Would you please look over these solved cases?
BINDER	UNIT ANNOTATION	RECORDED MEASUREMENT
SAD10318_P01_D02 (ADI-48584) (antibody, V domains shown, IgG; also called Ab3) VH: QVQLVQSGAEVKKPGASVKVSCKASGFNIKDYYMHWVRQAPGQRLEWMGWIDLENANTIYDAKFQGRVTITRDTSASTAYMELSSLRSEDTAVYYCARDAHHRYFYDVWGQGTLVTVSS VL: DIVMTQSPDSLAVSLGERATINCKSSQSLLNARTGKNHLAWYQQKPGQPPKLLIYWASTRESGVPDRFSGSGSGTDFTLTISSLQAEDVAVYYCKQSHSHRTFGGGTKVEIK	MFI	91
SAD10320_P02_C06 (ADI-48654) (antibody, V domains shown, IgG; also called Ab84) VH: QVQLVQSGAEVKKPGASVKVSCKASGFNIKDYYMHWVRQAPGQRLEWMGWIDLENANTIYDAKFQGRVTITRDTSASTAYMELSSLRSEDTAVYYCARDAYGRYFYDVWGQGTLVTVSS VL: DIVMTQSPDSLAVSLGERATINCKSSQSLLNARTGKNYLAWYQQKPGQPPKLLIYWASTRESGVPDRFSGSGSGTDFTLTISSLQAEDVAVYYCKQSGHRRTFGGGTKVEIK	MFI	4890
SAD10319_P01_F03 (ADI-48627) (antibody, V domains shown, IgG; also called Ab246) VH: QVQLVQSGAEVKKPGASVKVSCKASGYTFESYDMHWVRQAPGQRLEWMGWINAGTGATVYSQKFQGRVTITRDTSASTAYMELSSLRSEDTAVYYCARDAYHHYFYDVWGQGTLVTVSS VL: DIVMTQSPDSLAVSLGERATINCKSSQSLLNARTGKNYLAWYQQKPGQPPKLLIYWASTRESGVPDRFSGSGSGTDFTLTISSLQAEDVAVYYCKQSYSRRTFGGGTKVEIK	MFI	45
SAD10318_P01_D01 (ADI-48576) (antibody, V domains shown, IgG; also called Ab182) VH: QVQLVQSGAEVKKPGASVKVSCKASGFNIKDYYMHWVRQAPGQRLEWMGWIDLENANTIYDAKFQGRVTITRDTSASTAYMELSSLRSEDTAVYYCARDAYHRYFYDHWGQGTLVTVSS VL: DIVMTQSPDSLAVSLGERATINCKSSQSLLNAHTGKNHLAWYQQKPGQPPKLLIYWASTRESGVPDRFSGSGSGTDFTLTISSLQAEDVAVYYCKQSHSHRTFGGGTKVEIK	MFI	42

Continue with the next binder.
[Q] Give its MFI pH 7.4 value. Item: SAD10318_P03_A09 (ADI-48608) (antibody, V domains shown, IgG; also called Ab203) VH: QVQLVQSGAEVKKPGASVKVSCKASGFNIKDYYMHWVRQAPGQRLEWMGWIDLENANTIYDAKFQGRVTITRDTSASTAYMELSSLRSEDTAVYYCARDHYGRYFYDHWGQGTLVTVSS VL: DIVMTQSPDSLAVSLGERATINCKSSQSLLNARTGHNHLAWYQQKPGQPPKLLIYWASTRESGVPDRFSGSGSGTDFTLTISSLQAEDVAVYYCKQSYHHRTFGGGTKVEIK
[A] 45
